The values you see were collected from PubChem BioAssay.

assay_summary: growth suppression of yeast trafficking mutant, preliminary HTS, modulators of trafficking downstream of Golgi apparatus project, 1536-format plate, OD 615 nm (AID 637); also: test concentration not given here
test_conditions: yeast transport mutant growth, absorbance 615 nm, 18 h; stronger effect = higher value
readout_type: inhibition (%)
API: value field is a number in %; no unit string.

Exam item: Answer with the recorded inhibition of `Cc1ccccc1NC(=O)c1ccccc1` only.
Marked response: 2.7

Exam item: Answer with the recorded inhibition of Cc1ccc(NCc2nnc(SCC(=O)NCc3ccco3)n2CC2CCCO2)cc1Cl (stereo unspecified) only.
Marked response: -3.17

Exam item: Answer with the recorded inhibition of `CC1(C)CC(=O)C=C(NCCN2CCN(C(=O)Nc3ccccc3)CC2)C1` only.
Marked response: 3.97

Exam item: Answer with the recorded inhibition of CC(NS(=O)(=O)c1ccc(OCC(=O)N2CCOCC2)c(Cl)c1)c1ccccc1 (stereo unspecified) only.
Marked response: 4.76

Exam item: Answer with the recorded inhibition of `COc1cccc(-n2c(SCC(=O)OC(C)C)nnc2-c2cccnc2)c1` only.
Marked response: -3.02

Exam item: Answer with the recorded inhibition of `CN(c1cccc(NS(=O)(=O)c2cccs2)c1)S(C)(=O)=O` only.
Marked response: 18.1

Exam item: Answer with the recorded inhibition of `Cc1ccc(OCc2nnc(SCC(=O)Nc3ccc4c(c3)OCO4)n2C)cc1` only.
Marked response: 6.98

Exam item: Answer with the recorded inhibition of `CCOC(=O)c1cc2oc(C)cc2n1CC(=O)OC1CCCCC1` only.
Marked response: 5.24

Exam item: Answer with the recorded inhibition of `COC(=O)CN(c1ccc2c(c1)OCO2)S(C)(=O)=O` only.
Marked response: 6.67

Exam item: Answer with the recorded inhibition of `Cc1ccc(S(=O)(=O)N(C)CC(=O)NC2CCCC2)cc1` only.
Marked response: 0.95

Exam item: Answer with the recorded inhibition of `COCCCNC(=O)c1c(N)n(-c2cccc(S(N)(=O)=O)c2)c2nc3ccccc3nc12` only.
Marked response: -0.79
